Give measured IC50 for each item. Keep answers brief.
- test_name: Concentration to inhibit growth of v-src-transformed cells (SR-3Y1 cells) after 72 h exposure
- Type: functional
- experimental_parameters: Rattus norvegicus, SR3Y1, 72 h

Recorded result, C[C@@H]1C[C@H]2O[C@@H]2\C=C/C=C/C(=N\OCC(=O)N2CCCCC2)Cc2c(Cl)c(O)cc(O)c2C(=O)O1 , IC50: 6.1 nM

Recorded result, COc1ccc(NC(=O)CO\N=C2/C=C/C=C\[C@H]3O[C@@H]3C[C@@H](C)OC(=O)c3c(O)cc(O)c(Cl)c3C2)cc1 , IC50: 58 nM

Recorded result, C[C@@H]1C[C@H]2O[C@@H]2\C=C/C=C/C(=N\O)Cc2c(Cl)c(O)cc(O)c2C(=O)O1 , IC50: 26 nM

Recorded result, C[C@@H]1C[C@H]2O[C@@H]2\C=C/C=C/C(=N\OCC(=O)N2CCCC2)Cc2c(Cl)c(O)cc(O)c2C(=O)O1 , IC50: 20 nM

====

- system_name: UniProtKB Q9WUD9
- test_name: Inhibition of v-Src tyrosine kinase autophosphorylation in SR3Y1 cells after 15 hr exposure
- Format: cell-based
Give measured IC50 for each item. Keep answers brief.

Recorded result, COC(=O)CNC(=O)CO\N=C1/C=C/C=C\[C@H]2O[C@@H]2C[C@@H](C)OC(=O)c2c(O)cc(O)c(Cl)c2C1 , IC50: 0.36 µM

Recorded result, C[C@@H]1C[C@H]2O[C@@H]2\C=C/C=C/C(=N\OCC(=O)N2CCCCCC2)Cc2c(Cl)c(O)cc(O)c2C(=O)O1 , IC50: 0.067 µM

Recorded result, C[C@@H]1C[C@H]2O[C@@H]2\C=C/C=C/C(=N\OCC(=O)N(CCO)CCO)Cc2c(Cl)c(O)cc(O)c2C(=O)O1 , IC50: > 1 µM

Recorded result, C[C@@H]1C[C@H]2O[C@@H]2\C=C/C=C/C(=N\OCC(=O)NCc2cccnc2)Cc2c(Cl)c(O)cc(O)c2C(=O)O1 , IC50: > 1 µM

Recorded result, C[C@@H]1C[C@H]2O[C@@H]2\C=C/C=C/C(=N\OCC(=O)N2CCCCC2)Cc2c(Cl)c(O)cc(O)c2C(=O)O1 , IC50: 0.025 µM

Recorded result, CCN(CC)CCNC(=O)CO\N=C1/C=C/C=C\[C@H]2O[C@@H]2C[C@@H](C)OC(=O)c2c(O)cc(O)c(Cl)c2C1 , IC50: > 1 µM

====

- system_name: Proto-oncogene tyrosine-protein kinase Src (Rattus norvegicus)
- test_name: Inhibition of v-Src tyrosine kinase autophosphorylation in SR3Y1 cells after 15 hr exposure
parameter: log10 IC50 (log10 of the value in nM)
A difference of one corresponds to tenfold IC50; all values are log10 with IC50 in nM.

Recorded result, C[C@@H]1C[C@H]2O[C@@H]2\C=C/C=C/C(=N\OCC(=O)N2CCOCC2)Cc2c(Cl)c(O)cc(O)c2C(=O)O1 , log10 IC50: 2.15

Recorded result, C[C@@H]1C[C@H]2O[C@@H]2\C=C/C=C/C(=N\OCC(=O)Nc2ccccc2)Cc2c(Cl)c(O)cc(O)c2C(=O)O1 , log10 IC50: 1.63

Recorded result, COc1ccc(NC(=O)CO\N=C2/C=C/C=C\[C@H]3O[C@@H]3C[C@@H](C)OC(=O)c3c(O)cc(O)c(Cl)c3C2)cc1 , log10 IC50: 2.59

Recorded result, C[C@@H]1C[C@H]2O[C@@H]2\C=C/C=C/C(=N\OCC(=O)N2CCCC2)Cc2c(Cl)c(O)cc(O)c2C(=O)O1 , log10 IC50: 1.85

Recorded result, C[C@@H]1C[C@H]2O[C@@H]2\C=C/C=C/C(=N\OCC(=O)NC2CCCC2)Cc2c(Cl)c(O)cc(O)c2C(=O)O1 , log10 IC50: 1.15

Recorded result, C[C@@H]1C[C@H]2O[C@@H]2\C=C/C=C/C(=N\OCC(=O)NCC2CCCCC2)Cc2c(Cl)c(O)cc(O)c2C(=O)O1 , log10 IC50: 1.23

Recorded result, C[C@@H]1C[C@H]2O[C@@H]2\C=C/C=C/C(=N\O)Cc2c(Cl)c(O)cc(O)c2C(=O)O1 , log10 IC50: 1.75

Recorded result, C[C@@H]1C[C@H]2O[C@@H]2/C=C\C=C\C(=O)Cc2c(Cl)c(O)cc(O)c2C(=O)O1 , log10 IC50: 2.26

Recorded result, C[C@@H]1C[C@H]2O[C@@H]2\C=C/C=C/C(=N\OCC(=O)NC2CCCCC2)Cc2c(Cl)c(O)cc(O)c2C(=O)O1 , log10 IC50: 2.32

Recorded result, C[C@@H]1C[C@H]2O[C@@H]2\C=C/C=C/C(=N\OCC(=O)Nc2cccnc2)Cc2c(Cl)c(O)cc(O)c2C(=O)O1 , log10 IC50: 1.73
